- measurement.target: breast cancer resistance protein (BCRP) (Homo sapiens)
- Construct: endogenous in cells
- Sequence (Q9UNQ0 whole entry): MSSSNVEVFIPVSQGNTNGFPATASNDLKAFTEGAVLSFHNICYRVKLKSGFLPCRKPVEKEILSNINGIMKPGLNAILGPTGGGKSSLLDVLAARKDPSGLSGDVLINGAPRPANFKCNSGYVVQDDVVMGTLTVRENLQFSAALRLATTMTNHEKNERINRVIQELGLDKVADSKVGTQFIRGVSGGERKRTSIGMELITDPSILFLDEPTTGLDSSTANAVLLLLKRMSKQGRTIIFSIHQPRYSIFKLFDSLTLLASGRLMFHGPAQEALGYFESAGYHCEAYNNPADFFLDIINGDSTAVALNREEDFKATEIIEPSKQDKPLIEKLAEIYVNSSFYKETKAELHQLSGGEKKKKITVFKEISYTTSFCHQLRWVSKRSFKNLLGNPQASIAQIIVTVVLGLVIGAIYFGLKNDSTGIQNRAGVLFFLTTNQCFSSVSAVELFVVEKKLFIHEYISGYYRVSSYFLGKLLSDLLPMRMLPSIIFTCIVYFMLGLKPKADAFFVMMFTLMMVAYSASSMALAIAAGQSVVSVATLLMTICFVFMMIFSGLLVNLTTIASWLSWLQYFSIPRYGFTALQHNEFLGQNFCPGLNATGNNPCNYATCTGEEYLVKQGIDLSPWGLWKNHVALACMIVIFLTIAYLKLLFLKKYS
- assay.comment: BCRP transporter inhibition
- Type: in vitro ADME
attribute.measured: BCRP inhibitory activity, rank among the tested compounds

- CCCO[C@H]1CC[C@H](N(C(=O)Nc2ncc(S(=O)(=O)CC(=O)O)s2)C2CCCCC2)CC1: weakest BCRP inhibitors
- CCCO[C@H]1CC[C@H](N(C(=O)Nc2ncc([S+]([O-])CC(=O)O)s2)C2CCCCC2)CC1 (relative stereo) [Sulfoxide-1]: weakest BCRP inhibitors
- CCCO[C@H]1CC[C@H](N(C(=O)Nc2ncc([S+]([O-])CC(=O)O)s2)C2CCCCC2)CC1 (single isomer, unassigned) [Sulfoxide-1B]: weakest BCRP inhibitors

These data points were gathered from patent US12391658B2.
